Reported CMC values are given for each entry in this list.
# Experiment summary: surface tension of aqueous surfactant solutions and critical micelle concentration (K-12 Processor Tensiometer)
# Type: physicochemical
# Measurement conditions: carboxylate salts, deionized water; Table 5

Prompt: # input compound: O=C(O)C(F)(C(F)(F)F)C(F)(F)C(F)(F)C(F)(F)C(F)(F)C(F)(F)C(F)(F)C(F)(F)C(F)(F)C(F)(F)C(F)(F)F (stereo not drawn) [Example M18, C10 F21 CF(CF3)COO^- H4 N^+] ; wanted: its CMC
Response: 600 ppm

Prompt: # input compound: O=C(O)C(F)(C(F)(F)F)C(F)(F)C(F)(F)C(F)(F)C(F)(F)C(F)(F)C(F)(F)C(F)(F)F (stereo not drawn) [Example M30] ; wanted: its CMC
Response: 3000 ppm
